TARGET_ENTITY: GABA-A receptor; anion channel (Mus musculus) (UniProt Q8BHJ7+P26048+Q8QZW7+P50571+Q9R0Y8+P22723+A2AMW3+P62812+Q9JLF1+P26049+P22933+Q9D6F4+P63080+P27681+P16305)
ASSAY_NAME: In vivo inhibition of specific [3H]flunitrazepam binding in mouse brain 10 minute after iv administration of 15 uM/Kg
Format: organism-based
Assign class by inhibition: not lower than 10% means 1; lower than 10% means -1.

INPUT: Decide: inhibition of `CCCOC(=O)c1cc2c(cn1)[nH]c1ccccc12` >= 10%?
OUTPUT: 1

INPUT: Say whether COC(=O)C1Cc2c([nH]c3ccccc23)CN1 (stereo unspecified) shows inhibition of 10% or more.
OUTPUT: -1

INPUT: Kindly determine if inhibition recorded for `CN(C)CCOC(=O)c1cc2c3ccccc3nc-2c[nH]1` is above or exactly 10%.
OUTPUT: 1

INPUT: Kindly determine if inhibition recorded for `N#CCCOC(=O)c1cc2c3ccccc3nc-2c[nH]1` is above or exactly 10%.
OUTPUT: 1

INPUT: Assess whether reported inhibition for `O=C(OCCF)c1cc2c3ccccc3nc-2c[nH]1` sits at 10% or higher.
OUTPUT: 1

INPUT: Could you verify whether the entry `O=C(OCc1ccccc1)c1cc2c3ccccc3nc-2c[nH]1` shows inhibition of no less than 10%?
OUTPUT: 1

* * *

TARGET_ENTITY: GABA-A receptor; anion channel (Mus musculus) (UniProt Q8BHJ7+P26048+Q8QZW7+P50571+Q9R0Y8+P22723+A2AMW3+P62812+Q9JLF1+P26049+P22933+Q9D6F4+P63080+P27681+P16305)
ASSAY_NAME: In vivo inhibition of specific [3H]flunitrazepam binding in mouse brain 10 minute after iv administration of 15 uM/Kg
Type: organism-based
Kindly state inhibition for each of the entries shown.
# value in %; strip the unit string

INPUT: Quick check: inhibition of `O=C(OCCCl)c1cc2c3ccccc3nc-2c[nH]1` ?
OUTPUT: 89

INPUT: Given the entry `COCCOC(=O)c1cc2c3ccccc3nc-2c[nH]1` , report its measured inhibition.
OUTPUT: 34.6

INPUT: Which inhibition reading was recorded for the molecule `CCOC(=O)c1cc2c(cn1)[nH]c1ccccc12` ?
OUTPUT: 61.7

INPUT: Data request, read-out inhibition, for `O=C(OCc1cccnc1)c1cc2c3ccccc3nc-2c[nH]1`
OUTPUT: 49.4

INPUT: May I ask what inhibition has been recorded for `CCCCOC(=O)c1cc2c(cn1)[nH]c1ccccc12` ?
OUTPUT: 54.9

INPUT: For `COC(=O)c1cc2c(cn1)[nH]c1ccccc12` , what is its reported inhibition?
OUTPUT: 51.2

* * *

TARGET_ENTITY: GABA-A receptor; anion channel
ASSAY_NAME: Concentration that inhibits specific [3H]flunitrazepam binding to benzodiazepine receptor in bovine brain
ENDPOINT_NAME: pIC50
pIC50 (log units): -log10 of the concentration in mol/L.

INPUT: Need pIC50, item `N#CCCOC(=O)c1cc2c3ccccc3nc-2c[nH]1`
OUTPUT: 7.57

INPUT: Entry `COC(=O)c1cc2c(cn1)[nH]c1ccccc12` : reported pIC50 = ?
OUTPUT: 8.60

INPUT: I am curious: what pIC50 value has been reported for COC(=O)C1Cc2c([nH]c3ccccc23)CN1 (centres undefined) ?
OUTPUT: 6.60

INPUT: Reported pIC50, compound O=C(O)C1Cc2c([nH]c3ccccc23)CN1 (centres undefined) : ____
OUTPUT: 4.66

INPUT: Need pIC50 of `CCCOC(=O)c1cc2c(cn1)[nH]c1ccccc12` , thanks.
OUTPUT: 8.34

INPUT: // returns reported pIC50 for input `COCCOC(=O)c1cc2c3ccccc3nc-2c[nH]1`
OUTPUT: 6.84

INPUT: Item under review: `O=C(O)c1cc2c3ccccc3nc-2c[nH]1` . Reported pIC50?
OUTPUT: 5.14

INPUT: State the recorded pIC50 for this entry: CCOC(=O)C1Cc2c([nH]c3ccccc23)CN1 (centres undefined)
OUTPUT: 5.22

INPUT: What does the record list as pIC50 for `O=C(OCc1cccnc1)c1cc2c3ccccc3nc-2c[nH]1` ?
OUTPUT: 7.47

INPUT: Any idea what its pIC50 is? The compound is `CCOC(=O)c1cc2c(cn1)[nH]c1ccccc12`
OUTPUT: 8.85

INPUT: // returns reported pIC50 for input `O=C(OCCCl)c1cc2c3ccccc3nc-2c[nH]1`
OUTPUT: 7.66

INPUT: Tell me the measured pIC50 of `CCCCOC(=O)c1cc2c(cn1)[nH]c1ccccc12` , please.
OUTPUT: 7.54

INPUT: Can you share its pIC50? I mean this compound: CCCCOC(=O)C1Cc2c([nH]c3ccccc23)CN1 (centres undefined)
OUTPUT: 5.32

INPUT: Returns the measured pIC50 for the input compound. Input: `O=C(OCc1ccccc1)c1cc2c3ccccc3nc-2c[nH]1`
OUTPUT: 7.68

INPUT: Query: pIC50; subject: O=C(OCc1ccccc1)C1Cc2c([nH]c3ccccc23)CN1 (centres undefined)
OUTPUT: 5.57

INPUT: Requested field: pIC50. Item: `[2H]C([2H])([2H])OC(=O)c1cc2c(cn1)[nH]c1ccccc12`
OUTPUT: 8.28

INPUT: Entry `O=C(OCCF)c1cc2c3ccccc3nc-2c[nH]1` has what pIC50?
OUTPUT: 7.57

INPUT: Requested read-out: pIC50. Entry: CCCOC(=O)C1Cc2c([nH]c3ccccc23)CN1 (centres undefined)
OUTPUT: 5.36

INPUT: # pIC50 lookup, item `CN(C)CCOC(=O)c1cc2c3ccccc3nc-2c[nH]1`
OUTPUT: 6.48
